testSystem: Peroxisome proliferator-activated receptor gamma (Homo sapiens, UniProt P37231)
Sequence (P37231 whole entry): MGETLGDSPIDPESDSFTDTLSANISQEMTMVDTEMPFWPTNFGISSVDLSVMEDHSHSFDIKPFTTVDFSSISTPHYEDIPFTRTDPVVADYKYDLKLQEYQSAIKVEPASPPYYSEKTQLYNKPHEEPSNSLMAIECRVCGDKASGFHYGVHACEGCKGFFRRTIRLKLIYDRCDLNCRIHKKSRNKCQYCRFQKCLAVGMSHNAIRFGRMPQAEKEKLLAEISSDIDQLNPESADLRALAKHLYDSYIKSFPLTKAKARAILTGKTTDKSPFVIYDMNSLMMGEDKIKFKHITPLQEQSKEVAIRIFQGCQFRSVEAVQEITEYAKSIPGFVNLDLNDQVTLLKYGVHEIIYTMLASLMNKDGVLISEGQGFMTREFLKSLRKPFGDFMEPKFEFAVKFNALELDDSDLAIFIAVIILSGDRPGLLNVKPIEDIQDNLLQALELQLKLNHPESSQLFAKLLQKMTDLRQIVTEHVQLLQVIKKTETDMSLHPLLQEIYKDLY
assayExplanation: Partial agonist activity at human PPARgamma expressed in MG-63 cells by reporter gene-based transactivation assay
Assay type: functional, cell-based
Rule: measured EC50 below 200 nM gets Condition met; anything equal to or greater than 200 nM gets Condition not met.

smilesData: COc1cc(CNC(=O)c2c(OC)cc(O)c3c2OC2=CC(O)=C(C(C)=O)C(=O)[C@]23C)c2ccccc2c1
labelClass: Condition met
--
smilesData: COC(=O)c1cc(CNC(=O)c2c(OC)cc(O)c3c2OC2=CC(O)=C(C(C)=O)C(=O)[C@]23C)c2ccccc2c1
labelClass: Condition not met
--
smilesData: COC(=O)CCc1cc(CNC(=O)c2c(OC)cc(O)c3c2OC2=CC(O)=C(C(C)=O)C(=O)[C@]23C)c2ccccc2c1
labelClass: Condition met
--
smilesData: COc1cc(O)c2c(c1C(=O)NCc1cc(C)cc3ccccc13)OC1=CC(O)=C(C(C)=O)C(=O)[C@]12C
labelClass: Condition not met
--
smilesData: COc1cc(O)c2c(c1C(=O)NCc1cc(O)cc3ccccc13)OC1=CC(O)=C(C(C)=O)C(=O)[C@]12C
labelClass: Condition met
--
smilesData: CCOc1cc(CNC(=O)c2c(OC)cc(O)c3c2OC2=CC(O)=C(C(C)=O)C(=O)[C@]23C)c2ccccc2c1
labelClass: Condition not met
--
smilesData: COc1cc(O)c2c(c1C(=O)NCc1cc(OC(C)=O)cc3ccccc13)OC1=CC(O)=C(C(C)=O)C(=O)[C@]12C
labelClass: Condition not met
--
smilesData: COc1cc(O)c2c(c1C(=O)NCc1cc(C(=O)O)cc3ccccc13)OC1=CC(O)=C(C(C)=O)C(=O)[C@]12C
labelClass: Condition not met

* * *

Reported Emax is given for each of the following molecules.
testSystem: Peroxisome proliferator-activated receptor gamma (Homo sapiens)
assayExplanation: Partial agonist activity at human PPARgamma expressed in MG-63 cells at 2 times EC50 concentration by reporter gene-based transactivation assay relative to PPARgamma full agonist
Type: functional, cell-based
measurementLabel: Emax (%)

smilesData: COc1cc(CNC(=O)c2c(OC)cc(O)c3c2OC2=CC(O)=C(C(C)=O)C(=O)[C@]23C)c2ccccc2c1
testSystem: Peroxisome proliferator-activated receptor gamma (Homo sapiens)
endpointValue: 32
--
smilesData: COc1cc(O)c2c(c1C(=O)NCc1cc(OC(C)=O)cc3ccccc13)OC1=CC(O)=C(C(C)=O)C(=O)[C@]12C
testSystem: Peroxisome proliferator-activated receptor gamma (Homo sapiens)
endpointValue: 50
--
smilesData: CCOc1cc(CNC(=O)c2c(OC)cc(O)c3c2OC2=CC(O)=C(C(C)=O)C(=O)[C@]23C)c2ccccc2c1
testSystem: Peroxisome proliferator-activated receptor gamma (Homo sapiens)
endpointValue: 22
--
smilesData: COc1cc(O)c2c(c1C(=O)NCc1cc(O)cc3ccccc13)OC1=CC(O)=C(C(C)=O)C(=O)[C@]12C
testSystem: Peroxisome proliferator-activated receptor gamma (Homo sapiens)
endpointValue: 29
